test-details: protein stability index of a GFP-peptide fusion (yeast GPS) (PSI 1-4); higher = more stable; sorted into four equal gates, so the index is relative within each strain
condition: pdr5∆
Give protein stability index for every item shown.
Give bare numbers.

Solved cases below.
>  <construct-sequence>
ADVTHFVKPGTALDAEG [DIS3]

>  <meas-value>
3.33

$$$$
>  <construct-sequence>
RIIRKKIFIAVVWYQRL [RRI2]

>  <meas-value>
1.27

$$$$
>  <construct-sequence>
IIRPILGKVRFANYKLL [SRB4]

>  <meas-value>
1.75

$$$$
>  <construct-sequence>
NQILMSVNFFVSLLKKN [RPL1A]

>  <meas-value>
2.35

$$$$

Working through the 8 sequences below one at a time, give protein stability index for each.
1. AGGQRIVDDYWESLAKK [SWP82]
2. LRLRGGIIEPSLKALAS [RPL40A]
3. FGQKGGQAIVVHPDYLY [FAS2]
4. GFKTPKTAIEGSYIDKK [RPS11A]
5. NLLLRELNVEKLNTFNL [SRP72]
6. EARFDVLITSYEMVIRE [ISW2]
7. MFLEFQSTQTDLEKTER [SMC2]
8. ERKKSIGSQRGRRLSML [DSN1]

Output line:
1. 2.42
2. 3.02
3. 1.62
4. 3.21
5. 3.41
6. 1.49
7. 2.8
8. 2.53

* * *

test-details: protein stability index of a GFP-peptide fusion (yeast GPS) (PSI 1-4); higher = more stable; sorted into four equal gates, so the index is relative within each strain
condition: san1∆
Decision: protein stability index compared against 3; not below it gives y, below it gives n.

Here's what some known entries look like.
>  <construct-sequence>
LDKLNCAINSKSRGSDL [RRP6]

>  <qualitative-label>
n

$$$$
>  <construct-sequence>
LKLGLVEYLDVNEENDS [RET1]

>  <qualitative-label>
y

$$$$
>  <construct-sequence>
VEEDHTLGNALRYVIMK [RPC19]

>  <qualitative-label>
n

$$$$
>  <construct-sequence>
VEGISEVQARKSKSVSF [RPT5]

>  <qualitative-label>
y

$$$$

Input line: Hello, I need to know if LNYGVYLNGTLIGSIRF [RET1] has measured protein stability index not below 3. Thanks!
Output line: n

Input line: Hello, I need to know if QIIVTDGKLEPSTRSNF [YJL039C/NUP192] has measured protein stability index not below 3. Thanks!
Output line: n

Input line: Hello, I need to know if DAENEWNVEKFKKDFEV [RPC40] has measured protein stability index not below 3. Thanks!
Output line: n

Input line: Hello, I need to know if NHDRINISNNLQKALTV [RPN8] has measured protein stability index not below 3. Thanks!
Output line: y

Input line: Hello, I need to know if NENEDEDEGTLNVAEII [ARP9] has measured protein stability index not below 3. Thanks!
Output line: y

Input line: Hello, I need to know if TKSMVKIAEQYSKRIEE [RPN11] has measured protein stability index not below 3. Thanks!
Output line: n

Input line: Hello, I need to know if SSSKSMINDENYIINDI [SRB8] has measured protein stability index not below 3. Thanks!
Output line: n

Input line: Hello, I need to know if QNFAEEDDSSNSCFSDG [REC8] has measured protein stability index not below 3. Thanks!
Output line: n

Input line: Hello, I need to know if KSIMDGIHDGHIKKLLH [FAS1] has measured protein stability index not below 3. Thanks!
Output line: n

Input line: Hello, I need to know if KPSFSFPGKPVDVQAPT [YOR098C/NUP1] has measured protein stability index not below 3. Thanks!
Output line: y

Input line: Hello, I need to know if PLITRHCYPRQLCQITC [RRP46] has measured protein stability index not below 3. Thanks!
Output line: n

Input line: Hello, I need to know if SSFEKFNDSQAIVCYIL [SRP72] has measured protein stability index not below 3. Thanks!
Output line: n

Input line: Hello, I need to know if RAGVSQVLNRYTYSSTL [RPB2] has measured protein stability index not below 3. Thanks!
Output line: n

* * *

test-details: protein stability index of a GFP-peptide fusion (yeast GPS) (PSI 1-4); higher = more stable; sorted into four equal gates, so the index is relative within each strain
condition: pdr5∆
parameter: protein stability index
Answers are plain numbers.

>  <construct-sequence>
VNRLLSVIPLKGRYAPE [RRP4]

>  <protein stability index>
1.68

$$$$

Working through the 2 sequences below one at a time, give protein stability index for each.
1. LTEQIRELREVIELPLK [RPT4]
2. TTDSLTKVLQADLPGSY [YMR129W/POM152]

Output line:
1: 3.73; 2: 2.79

* * *

Give protein stability index for every item shown.
test-details: protein stability index of a GFP-peptide fusion (yeast GPS) (PSI 1-4); higher = more stable; sorted into four equal gates, so the index is relative within each strain
condition: ubr1∆
Numbers only.

Solved cases below.
>  <construct-sequence>
TAEERVGRRAANLRVLN [RPL15A]

>  <meas-value>
2.92

$$$$
>  <construct-sequence>
QDDEYVKDWLYDSRPLE [PRP8]

>  <meas-value>
3.02

$$$$
>  <construct-sequence>
FCPIVEEIVSNSSRFSD [YCS4]

>  <meas-value>
2.35

$$$$
>  <construct-sequence>
KLPKVYKRSIVRNYKPL [SWI1]

>  <meas-value>
2.96

$$$$
>  <construct-sequence>
HLVMRAISLGLLKGSID [RPN9]

>  <meas-value>
1.79

$$$$

Working through the 5 sequences below one at a time, give protein stability index for each.
1. QGRRLGESIMSEEPTDF [MCD1]
2. TVDVSSPTENGVFDPAS [RPL22A]
3. NNSTSNANTVFSERAAM [SWI1]
4. GGGAARRQAVDVSPLRR [RPS5]
5. EEASQQQQLQQNSKEKN [MED2]

Output line:
1. 3.23
2. 2.87
3. 3.24
4. 1.85
5. 2.83

Working through the 2 sequences below one at a time, give protein stability index for each.
1. MAILLLYNDADVLTLEN [CDC53]
2. NPSYPGMMSTTGTARLN [YJL039C/NUP192]

Output line:
1: 2.75; 2: 3.24

* * *

Give protein stability index for every item shown.
test-details: protein stability index of a GFP-peptide fusion (yeast GPS) (PSI 1-4); higher = more stable; sorted into four equal gates, so the index is relative within each strain
condition: doa10∆

Solved cases below.
>  <construct-sequence>
VEYLTRYVAGVQQRYTQ [PRE6]

>  <meas-value>
1.47

$$$$
>  <construct-sequence>
VSPNISSASPSALTSPT [SIR3]

>  <meas-value>
2.45

$$$$

Now for another entry.
Input line: For the sequence KLHEFYLLISKENKKRK [IRR1] , what protein stability index is on record?
Output line: 2.96

* * *

test-details: protein stability index of a GFP-peptide fusion (yeast GPS) (PSI 1-4); higher = more stable; sorted into four equal gates, so the index is relative within each strain
condition: pdr5∆
parameter: protein stability index
Answers are plain numbers.

Working through the 2 sequences below one at a time, give protein stability index for each.
1. ELHKKLVEAAKLLKIPK [YDL116W/NUP84]
2. LQLSKTPLSIKIMVAEW [SRB8]

Output line:
[2.24, 2.84]

* * *

test-details: protein stability index of a GFP-peptide fusion (yeast GPS) (PSI 1-4); higher = more stable; sorted into four equal gates, so the index is relative within each strain
condition: ubr1∆
Decision: protein stability index compared against 3; not below it gives Condition met, below it gives Condition not met.

>  <construct-sequence>
KLDKQINMADRSLGLQQ [POP6]

>  <qualitative-label>
Condition met

$$$$

Input line: Hello, I need to know if ISSLIGGFEYFLQPLLL [NUT1] has measured protein stability index not below 3. Thanks!
Output line: Condition not met

Input line: Hello, I need to know if SFKYLSNNDEDDKDCTI [RGR1] has measured protein stability index not below 3. Thanks!
Output line: Condition not met

Input line: Hello, I need to know if AVFYTPKELGGLGMISA [PRP8] has measured protein stability index not below 3. Thanks!
Output line: Condition not met

Input line: Hello, I need to know if DRKIEFPPPSVAARAEI [RPT6] has measured protein stability index not below 3. Thanks!
Output line: Condition not met

Input line: Hello, I need to know if KTLIGLQGIVIWDSQKF [POP4] has measured protein stability index not below 3. Thanks!
Output line: Condition not met

Input line: Hello, I need to know if DYGEEIKSGVAKLESLL [MTW1] has measured protein stability index not below 3. Thanks!
Output line: Condition met

Input line: Hello, I need to know if SGNNYNDINISSIENNI [MED2] has measured protein stability index not below 3. Thanks!
Output line: Condition met

* * *

test-details: protein stability index of a GFP-peptide fusion (yeast GPS) (PSI 1-4); higher = more stable; sorted into four equal gates, so the index is relative within each strain
condition: ubr1∆
Give protein stability index for every item shown.
Numbers only.

Solved cases below.
>  <construct-sequence>
IDDKTQNDELTMGMRAL [DIS3]

>  <meas-value>
3

$$$$
>  <construct-sequence>
IGGRRFSEGTSADREIQ [RPT4]

>  <meas-value>
2.77

$$$$

Now for another entry.
Input line: For the sequence DVKLLNPIDIKRRFGEL [RPP1] , what protein stability index is on record?
Output line: 2.97
